Test system: Wnt3a-mediated β-catenin signaling in HEK293-TB cells
Type: cell-based
Details: measured at 100 μM peptide; mean ± standard deviation
Cut-off 6% on HEK293S-TB % Remaining Activity, inclusive. At or above means t; below means f.

Would you say LPSDDLEFWCHVMY [Fz7-21] shows HEK293S-TB % Remaining Activity at minimum 6%?
f

Cool, now LPSDNLEFWCHVMY [Fz7-21N]
f

And then ISLIEAMIALDRVF [Fz7-06] , what is it?
f

What about this sequence? YEHLHDLMDLIRPW [Fz7-07]
t

Similarly, FDFCSVMPQFIYCPGD [Fz7-20] ?
t

Another: IWFKGRFVEFSSLV [Fz7-17]
f
